These measurements were taken from patent US20170037028A1.

testedOn: GLUT1 (Homo sapiens)
Sequence (P11166 1-492): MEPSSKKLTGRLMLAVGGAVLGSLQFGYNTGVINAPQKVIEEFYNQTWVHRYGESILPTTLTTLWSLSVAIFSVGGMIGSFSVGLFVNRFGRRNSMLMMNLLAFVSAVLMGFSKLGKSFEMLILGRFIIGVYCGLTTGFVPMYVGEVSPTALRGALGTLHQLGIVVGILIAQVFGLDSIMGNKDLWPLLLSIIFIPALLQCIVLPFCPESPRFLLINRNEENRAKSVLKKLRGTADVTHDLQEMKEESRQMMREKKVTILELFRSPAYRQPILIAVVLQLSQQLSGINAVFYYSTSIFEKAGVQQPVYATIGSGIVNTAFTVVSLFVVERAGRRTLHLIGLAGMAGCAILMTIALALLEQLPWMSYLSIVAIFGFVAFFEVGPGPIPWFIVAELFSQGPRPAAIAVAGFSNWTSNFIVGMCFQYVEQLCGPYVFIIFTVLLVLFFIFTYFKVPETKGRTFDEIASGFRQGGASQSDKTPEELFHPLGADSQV
test: Indirect measurement of GLUT1 activity by quantification of intracellular ATP levels (glucose induced ATP increase)
Format: cell-based
Parameters: endogenous in cells; host or cells: DLD1 or CHO-K1
measurementConditions: read-out: IC50 regarding glucose induced ATP increase (GLUT1 inhibition)
metric: IC50 (nM)

Check out these entries, answers already filled in.
compound	metric	valueUnit	valueObserved
COc1cc(C(=O)Nc2c(C)nn(C(C)c3ccccc3)c2C)c2ccccc2n1 (racemic) [Example 1361]	IC50	nM	36.9
Cc1cc(Cn2nc(C(F)(F)F)c(NC(=O)c3cc(C(N)=O)nc4cc(F)ccc34)c2C)ccc1C#N [Example 1695]	IC50	nM	4.7

(1) Cc1nn(Cc2ccc(F)c(Cl)c2)c(C)c1NC(=O)c1cc(C(F)(F)F)nc2ccc(Br)cc12 [Example 190]
(2) Cc1nn(Cc2cccc(OC(F)(F)F)c2)c(C)c1NC(=O)c1cc(C(N)=O)nc2cccc(F)c12 [Example 1587]
(3) Cc1nn(Cc2ccc(F)cc2)c(C)c1NC(=O)c1cc(C(F)(F)F)nc2ccc(Cl)c(Cl)c12 [Example 22]
Ask: I would appreciate it if you could sort these 3 compounds by IC50, starting from the smallest number. List each label, following the requested order.
Reply: 3, 2, 1

(1) Cc1nn(Cc2ccc(C(=O)NCCCc3ccccc3)cc2)c(C)c1NC(=O)c1cc(C(F)(F)F)nc2ccc(Br)cc12 [Example 1178]
(2) Cc1ccc2nc(C)cc(C(=O)Nc3c(C)nn(Cc4ncccc4C)c3C)c2c1 [Example 1285]
Ask: Higher IC50: 1 or 2 ? Choose, then provide that item's label.
Reply: 2
(2: 6250 nM, 1: 224 nM)

* * *

testedOn: GLUT1 (Homo sapiens, UniProt P11166)
test: Indirect measurement of GLUT1 activity by quantification of intracellular ATP levels (glucose induced ATP increase)
Format: cell-based
Design: endogenous in cells; host or cells: DLD1 or CHO-K1
measurementConditions: read-out: IC50 regarding glucose induced ATP increase (GLUT1 inhibition)
metric: IC50 (nM)

Recorded IC50, per entry:
compound	IC50 [nM]
COc1ccc2nc(C(N)=O)cc(C(=O)Nc3c(C)nn(Cc4ccc(C#N)cc4)c3C)c2c1 [Example 258]	1
Cc1c(NC(=O)c2cc(C(F)(F)F)nc3ccc(Br)cc23)c(C(F)(F)F)nn1Cc1ccc(F)cc1F [Example 179]	78.5
Cc1nn(Cc2ccc(C#N)cc2F)c(C)c1NC(=O)c1cc(C(N)=O)nc2cc(F)c(F)cc12 [Example 298]	1

(1) Cc1nn(Cc2ccccc2C#N)c(C)c1NC(=O)c1cc(C(N)=O)nc2cccc(F)c12 [Example 267]
(2) Cc1nn(Cc2ccc(C(=O)NCCN(C)C)cn2)c(C)c1NC(=O)c1cc(C(F)(F)F)nc2ccc(Br)cc12 [Example 1292]
(3) Cc1c(NC(=O)c2cc(C(N)=O)nc3cc(F)ccc23)c(C(F)(F)F)nn1C(C)c1ccccc1 (single isomer, unassigned) [Example 336]
Ask: # sort list by recorded IC50, greatest to least Form entry: labels listed in requested order.
Reply: 2, 3, 1

* * *

testedOn: GLUT2 (Homo sapiens)
Sequence (P11168 1-524): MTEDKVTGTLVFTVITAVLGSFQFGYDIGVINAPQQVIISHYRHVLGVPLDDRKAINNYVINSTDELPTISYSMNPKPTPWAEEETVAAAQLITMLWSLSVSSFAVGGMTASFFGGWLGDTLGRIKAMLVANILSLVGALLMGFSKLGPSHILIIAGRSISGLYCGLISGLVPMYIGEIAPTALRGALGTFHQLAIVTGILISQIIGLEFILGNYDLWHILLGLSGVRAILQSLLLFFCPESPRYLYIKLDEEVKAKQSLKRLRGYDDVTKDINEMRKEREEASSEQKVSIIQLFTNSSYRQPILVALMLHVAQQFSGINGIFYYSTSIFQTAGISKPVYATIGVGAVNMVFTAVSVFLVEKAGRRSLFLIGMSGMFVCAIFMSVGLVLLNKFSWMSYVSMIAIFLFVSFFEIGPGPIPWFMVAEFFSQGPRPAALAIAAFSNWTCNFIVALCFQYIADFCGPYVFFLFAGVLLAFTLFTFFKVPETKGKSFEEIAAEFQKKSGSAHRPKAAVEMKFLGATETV
test: Indirect measurement of GLUT2 activity by quantification of intracellular ATP levels (fructose induced ATP increase)
measurementConditions: 10 mM fructose, 1 μM Rotenone, 15 min; CellTiter-Glo ATP readout; read-out: IC50 regarding fructose induced ATP increase (GLUT2 inhibition)
pIC50: −log10 of the molar value.
metric: pIC50

cpdSmiles	valueObserved
CCS(=O)(=O)N1CCC(Cn2nc(C)c(NC(=O)c3cc(C(N)=O)nc4cc(F)c(Cl)cc34)c2C)CC1	4.74
COc1cc(C(=O)Nc2c(C)nn(Cc3ccc(C#N)cc3)c2C)c2ccccc2n1	4.07
Cc1nn(Cc2ccc(CN(C)C)cc2)c(C)c1NC(=O)c1cc(C(N)=O)nc2cc(F)ccc12	4.29

(1) Cc1nn(Cc2ccc(C#N)cn2)c(C)c1NC(=O)c1cc(C(N)=O)nc2cccc(F)c12
(2) Cc1c(NC(=O)c2cc(C(N)=O)nc3ccccc23)c(C(F)(F)F)nn1Cc1ccc(C#N)cc1
Ask: Please compare: 1 and 2 . Report which one has the smaller pIC50 value. Refer to your chosen item by its label in the answer.
Reply: 2

* * *

testedOn: GLUT1 (Homo sapiens)
test: Indirect measurement of GLUT1 activity by quantification of intracellular ATP levels (glucose induced ATP increase)
Type: cell-based
Design: endogenous in cells; host or cells: DLD1 or CHO-K1
measurementConditions: read-out: IC50 regarding glucose induced ATP increase (GLUT1 inhibition)
pIC50: −log10 of the molar value.
metric: pIC50

// solved cases for pIC50 follow
compound	pIC50
COc1cc(C(=O)Nc2c(C(F)(F)F)nn(Cc3ccc(F)cc3)c2C)c2ccccc2n1 [Example 1436]	7.20
Cc1c(NC(=O)c2cc(C(N)=O)nc3cc(F)ccc23)c(C(F)(F)F)nn1Cc1cccc(S(C)(=O)=O)c1 [Example 1637]	6.54
Cc1nn(Cc2ccc(C(=O)NCCC(C)O)cc2)c(C)c1NC(=O)c1cc(C(F)(F)F)nc2ccc(Br)cc12 (stereo not drawn) [Example 1211]	6.24
Cc1nn(Cc2ccc(C#N)cc2)c(C)c1NC(=O)c1cc(C(N)=O)nc2cc(F)c(Cl)cc12 [Example 212]	9.22
CNS(=O)(=O)c1cc(C(=O)Nc2c(C)nn(Cc3ccc(C#N)cc3)c2C)c2ccccc2n1 [Example 1575]	7.42

(I) Cc1nn(Cc2ccc(F)cc2)c(C)c1NC(=O)c1cc(Cl)nc2ccccc12 [Example 99]
(II) Cc1ccc2nc(C)cc(C(=O)Nc3c(C)nn(Cc4ccccc4C(F)(F)F)c3C)c2c1 [Example 1298]
Ask: Lowest pIC50? choose I or II Field: selected label. Fill in the label of the entry you choose.
Reply: II
(II: 4.95, I: 6.44)

(A) Cc1nn(Cc2ccc(C(N)=O)cn2)c(C)c1NC(=O)c1cc(C(N)=O)nc2ccc(F)cc12 [Example 1207]
(B) CCc1cc(C(=O)Nc2c(C)nn(Cc3ccc(F)cc3)c2C)c2ccccc2n1 [Example 69]
(C) Cc1nn(Cc2ccc(C#N)s2)c(C)c1NC(=O)c1cc(C(N)=O)nc2cc(F)ccc12 [Example 422]
(D) COc1ccc(CCNC(=O)c2ccc(Cn3nc(C)c(NC(=O)c4cc(C(F)(F)F)nc5ccc(Br)cc45)c3C)cc2)cc1 [Example 1063]
Ask: Provide the items ranked by increasing pIC50. To answer, write out the labels according to the requested order.
Reply: A, B, D, C

(a) Cc1nn(Cc2ccc(F)cc2F)c(C)c1NC(=O)c1cc(C(N)=O)nc2ccc(Br)cc12 [Example 1490]
(b) Cc1c(NC(=O)c2cc(C(F)(F)F)nc3cc(F)c(F)cc23)c(C(F)(F)F)nn1Cc1ccc(F)c(F)c1 [Example 207]
(c) Cc1nn(Cc2ccc(C#N)cn2)c(C)c1NC(=O)c1cc(C(N)=O)nc2ccc(Br)cc12 [Example 350]
Ask: Please list the entries, largest pIC50 first. Your answer should be the labels, listed in the requested order.
Reply: c, a, b
